B1: ATGL (PNPLA2, patatin-like phospholipase domain-containing protein 2), human, full length / CGI-58 (ABHD5, 1-acylglycerol-3-phosphate O-acyltransferase ABHD5), human (parent)
chain 1: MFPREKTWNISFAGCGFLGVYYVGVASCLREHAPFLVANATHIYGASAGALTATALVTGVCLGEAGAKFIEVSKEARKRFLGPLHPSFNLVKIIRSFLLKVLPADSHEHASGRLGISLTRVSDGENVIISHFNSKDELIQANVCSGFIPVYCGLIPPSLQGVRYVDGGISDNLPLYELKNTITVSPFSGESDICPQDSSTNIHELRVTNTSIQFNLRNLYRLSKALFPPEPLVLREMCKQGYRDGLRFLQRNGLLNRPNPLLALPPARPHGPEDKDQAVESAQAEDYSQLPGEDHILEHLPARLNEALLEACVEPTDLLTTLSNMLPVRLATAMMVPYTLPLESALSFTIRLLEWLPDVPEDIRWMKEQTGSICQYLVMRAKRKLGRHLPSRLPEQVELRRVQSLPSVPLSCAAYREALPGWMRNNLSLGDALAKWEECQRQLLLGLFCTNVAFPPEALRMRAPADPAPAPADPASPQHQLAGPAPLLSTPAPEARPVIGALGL
chain 2: MAAEEEEVDSADTGERSGWLTGWLPTWCPTSISHLKEAEEKMLKCVPCTYKKEPVRISNGNKIWTLKFSHNISNKTPLVLLHGFGGGLGLWALNFGDLCTNRPVYAFDLLGFGRSSRPRFDSDAEEVENQFVESIEEWRCALGLDKMILLGHNLGGFLAAAYSLKYPSRVNHLILVEPWGFPERPDLADQDRPIPVWIRALGAALTPFNPLAGLRIAGPFGLSLVQRLRPDFKRKYSSMFEDDTVTEYIYHCNVQTPSGETAFKNMTIPYGWAKRPMLQRIGKMHPDIPVSVIFGARSCIDGNSGTSIQSLRPHSYVKTIAILGAGHYVYADQPEEFNQKVKEICDTVD

variants of: B1; assay: LUMIER: Protein A-ATGL variant and firefly luciferase-partner co-expressed in HEK293T, lysates immunoprecipitated on IgG-coated plates, co-precipitated partner measured as luciferase luminescence; conditions: with CGI-58 (ABHD5, 1-acylglycerol-3-phosphate O-acyltransferase ABHD5), transient co-transfection, IgG-coated LUMITRAC plates, 2 h at 4 °C, three PBS washes, Bright-Glo luciferase reagent, triplicates per assay, two …, parent: 0.32, not graded, scale: log2 fold change of co-immunoprecipitated luminescence relative to wild-type ATGL within each experiment
observable: screen value

Examples from the recorded data:
[[record]]
change = "chain 1 P258L"
reported = -1.23

[[record]]
change = "chain 1 F348E"
reported = -0.83

[[record]]
change = "chain 1 L159A"
reported = -0.737


a = chain 1 H109E
b = chain 1 P156K
## Input // compare measured screen value between a and b ; output the lower one In your reply, give the label of the chosen option.
## Output b
(b: -0.794, a: 0.0522)
